pKi: −log10 of the molar value.
The next entries give measured pKi for Histamine H1 receptor (Homo sapiens).
Readout kind: pKi

Please review the following examples before continuing.
>  <Compound>
N[C@H](Cc1c[nH]cn1)C(=O)N1CCN(CCCOc2ccc(C(=O)C3CC3)cc2)CC1

>  <pKi>
4.02

$$$$
>  <Compound>
CC[C@H](N)C(=O)N1CCN(CCCOc2ccc(C(=O)C3CC3)cc2)CC1

>  <pKi>
5.33

$$$$
>  <Compound>
CCCCCC(=O)c1ccc(OCCCN2CCN(C(=O)[C@H](N)C(C)C)CC2)cc1

>  <pKi>
4.78

$$$$

I. O=C1C[C@H](N2CCN(CCCOc3ccc(C(=O)C4CC4)cc3)CC2)N1
II. O=C(c1ccc(OCCCN2CCN(C(=O)[C@@H]3CCN3)CC2)cc1)C1CC1
III. CC[C@@H](N)C(=O)N1CCN(CCCOc2ccc(C(=O)C3CC3)cc2)CC1 (stereo in doubt; 43)
IV. CC[C@@H](N)C(=O)N1CCN(CCCOc2ccc(C(=O)C3CC3)cc2)CC1 (stereo in doubt; 57)
Endpoint returns the given compounds ordered by ascending pKi. Answer by listing the labels in the requested order.
III, I, II, IV

1. CC(C)(C)OC[C@@H](N)C(=O)N1CCN(CCCOc2ccc(C(=O)C3CC3)cc2)CC1
2. CCCCCC(=O)c1ccc(OCCCN2CCN(C(=O)[C@H](N)CO)CC2)cc1
// pick larger pKi from pair: 1 vs 2 Response format: the label of the selected entry.
1
(1: 4.79, 2: 4.33)

====

The next entries give measured Ki for Histamine H2 receptor (Homo sapiens).
Readout kind: Ki (µM)

Please review the following examples before continuing.
>  <Smiles data>
CCCCCC(=O)c1ccc(OCCCN2CCN(C(=O)[C@@H](N)Cc3ccncc3)CC2)cc1

>  <Readout kind>
Ki

>  <Measurement units>
µM

>  <Measured>
34.7

$$$$
>  <Smiles data>
CCCCCC(=O)c1ccc(OCCCN2CCN(C(=O)[C@H](N)Cc3ccncc3)CC2)cc1

>  <Readout kind>
Ki

>  <Measurement units>
µM

>  <Measured>
37.2

$$$$
>  <Smiles data>
CC(C)(C)OC(=O)N1CCC[C@@H]1C(=O)N1CCN(CCCOc2ccc(C(=O)C3CC3)cc2)CC1

>  <Readout kind>
Ki

>  <Measurement units>
µM

>  <Measured>
50.1

$$$$
>  <Smiles data>
CC(C)(C)OC(=O)N[C@H](Cc1ccccc1)C(=O)N1CCN(CCCOc2ccc(C(=O)C3CC3)cc2)CC1

>  <Readout kind>
Ki

>  <Measurement units>
µM

>  <Measured>
10

$$$$

a. CN[C@@H](C(=O)N1CCN(CCCOc2ccc(C(=O)C3CC3)cc2)CC1)C(C)C
b. CCCCCC(=O)c1ccc(OCCCN2CCN(C(=O)[C@@H](N)CC(C)C)CC2)cc1
c. O=C1C[C@@H](N2CCN(CCCOc3ccc(C(=O)C4CC4)cc3)CC2)N1
d. N#CC[C@@H](N)C(=O)N1CCN(CCCOc2ccc(C(=O)C3CC3)cc2)CC1
e. CCCCCC(=O)c1ccc(OCCCN2CCN(C(=O)[C@H](N)C(C)C)CC2)cc1
Sort the 5 compounds by Ki; largest first, smallest last. Answer by listing the labels in the requested order.
d, a, e, b, c

A. N[C@H](Cc1nccs1)C(=O)N1CCN(CCCOc2ccc(C(=O)C3CC3)cc2)CC1
B. O=C(c1ccc(OCCCN2CCN(C(=O)[C@H]3CCCN3)CC2)cc1)C1CC1
C. O=C(c1ccc(OCCCN2CCN(C(=O)[C@H]3CCN3)CC2)cc1)C1CC1
Sort the 3 compounds by Ki; largest first, smallest last. Answer by listing the labels in the requested order.
A, B, C
(A: 97.7 µM, B: 53.7 µM, C: 14.1 µM)

a. C[C@H](N)C(=O)N1CCN(CCCOc2ccc(C(=O)C3CC3)cc2)CC1
b. CCCCCC(=O)c1ccc(OCCCN2CCN(C(=O)[C@H](NC(=O)OC(C)(C)C)C(C)C)CC2)cc1
// pick larger Ki from pair: a vs b Response format: the label of the selected entry.
a
(a: 41.7 µM, b: 13.5 µM)
